Listed here: items and their measured Ki.
SYSTEM_TESTED: human FLAP (Homo sapiens (Human))
ASSAY_NAME: FLAP binding assay (HTRF format)
TEST_CONTEXT: wild type FLAP, HTRF format

Examples from the recorded data:
{"SUBSTANCE_SMILES": "CC(C)(C)NS(=O)(=O)c1ccccc1-c1ccc(-c2cn3cc(C(F)(F)F)ccc3n2)c(F)c1", "Ki": "> 10 µM"}
{"SUBSTANCE_SMILES": "C[C@@H](NC(=O)c1ccccc1-c1ccc(-c2cnc(N)nc2)c(F)c1)C(F)(F)F", "Ki": "> 10 µM"}

Continue with the compound presented below.
Recorded result, `Nc1ncc(-c2ccc(-c3ccccc3S(=O)(=O)CCNC(=O)c3ccccc3)cc2F)cn1` , Ki: > 10 µM

====

SYSTEM_TESTED: human FLAP (Homo sapiens (Human), UniProt P20292)
Sequence (P20292 whole entry): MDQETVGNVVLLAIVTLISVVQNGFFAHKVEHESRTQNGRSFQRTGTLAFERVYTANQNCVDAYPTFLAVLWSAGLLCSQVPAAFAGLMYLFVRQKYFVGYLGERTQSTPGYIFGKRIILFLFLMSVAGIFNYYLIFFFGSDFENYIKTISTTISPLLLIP
ASSAY_NAME: FLAP binding assay (HTRF format)
TEST_CONTEXT: wild type FLAP, HTRF format
pKi: −log10 of the molar value.
RECORDED_ENDPOINT: pKi

{"SUBSTANCE_SMILES": "Nc1cnc(-c2ccc(-c3ccccc3)c(F)c2F)cn1", "pKi": "~6.30"}
{"SUBSTANCE_SMILES": "CNS(=O)(=O)c1ccccc1-c1ccc(-c2ccc(N)nc2)c(F)c1", "pKi": "~5.60"}

pKi measured on `CS(=O)(=O)Nc1ccccc1-c1ccc(-c2ccc(N)nc2)c(F)c1` = ~6.12
